# Target Desc: cAMP-dependent kinase catalytic subunit (Bos taurus, UniProt P00517)
# Experimental Details: cAMP-Dependent protein Kinase Catalytic Subunit Assay
# Measurement Conditions: Table 1
pIC50: −log10 of the molar value.
The entries below are paired with their reported pIC50.

- Compound: "O=C1NC(=O)C2=C1c1cn(c3ccccc13)CCO[C@H](CNCc1ccccc1)CCn1cc2c2ccccc21 [Example 18s]"
  pIC50: "< 4.00"
- Compound: "O=C1NC(=O)C2=C1c1cn(c3ccccc13)CCCC(NCc1ccccc1)CCCn1cc2c2ccccc21 [Example 47]"
  pIC50: "< 4.00"

# next compound below
For O=C1NC(=O)C2=C1c1cn(c3ccccc13)CCO[C@@H](CNCc1ccccc1)CCn1cc2c2ccccc21 [Example 18r] , what is its reported pIC50?
< 4.00
